Reference source for all entries: the supplement of paper PMC8882468

- Test system: HCI-019 (organoid from a triple-negative breast cancer xenograft)
- Measurement Notes: CTG-3D luminescence at 96 h relative to day-0 seeding control (ratio to day 0); higher = more growth / less cytotoxicity; PDxO 3D drug screen (set 2), 96 h, CTG-3D normalised to day-0 seeding control.
- Condition Info: 0.1 µM; days in culture: 194
Reported CTG-3D luminescence at 96 h values are given for each entry in this list.

| Compound | CTG-3D luminescence at 96 h |
| --- | --- |
| Cc1c(CN2CCN(C(=O)[C@H](C)O)CC2)sc2c(N3CCOCC3)nc(-c3cnc(N)nc3)nc12 [apitolisib] | 0.828 |
| CC(C)n1nc(-c2ccc3oc(N)nc3c2)c2c(N)ncnc21 [sapanisertib] | 0.737 |
| Nc1cc(C(F)(F)F)c(-c2cc(N3CCOCC3)nc(N3CCOCC3)n2)cn1 [buparlisib] | 2.27 |
| CO[C@H]1C[C@@H]2CC[C@@H](C)[C@@](O)(O2)C(=O)C(=O)N2CCCC[C@H]2C(=O)O[C@H]([C@H](C)C[C@@H]2CC[C@@H](O)[C@H](OC)C2)CC(=O)[C@H](C)/C=C(\C)[C@@H](O)[C@@H](OC)C(=O)[C@H](C)C[C@H](C)/C=C/C=C/C=C/1C [rapamycin] | 0.588 |
| CS(=O)(=O)CCNCc1ccc(-c2ccc3ncnc(Nc4ccc(OCc5cccc(F)c5)c(Cl)c4)c3c2)o1 [lapatinib] | 2.84 |
